Just for reference, patent US8012929B2 is where these values come from.

- method description: in vivo
- setup conditions: CD-1, mouse, iv, 50 mg/kg
Square brackets hold non-standard residues; d marks the D form. Peptide text beside a SMILES is read from it. Aib = CC(C)(N)C(=O)O

[
  {
    "molecule": "CC(C)(NC(=O)[C@H](N)Cc1c[nH]c2ccccc12)C(=O)O [D-Trp-Aib] (H-[dW]-[Aib]-OH)",
    "unit abbrev": "min",
    "MRT": 26.4
  }
]

###

- method description: in vivo
- setup conditions: CD-1, mouse, iv, 50 mg/kg
Square brackets hold non-standard residues; d marks the D form. Peptide text beside a SMILES is read from it. Aib = CC(C)(N)C(=O)O
result type: AUC(0-inf)

[
  {
    "compound": "CC(C)(NC(=O)[C@H](N)Cc1c[nH]c2ccccc12)C(=O)O [D-Trp-Aib] (H-[dW]-[Aib]-OH)",
    "data value": "40.6 µg·h/mL"
  }
]

###

- method description: Membrane permeability in Caco-2 cell monolayer
- Assay type: in vitro ADME
- setup conditions: human, 1 mM, apical to basolateral, read-out: recovery at the experimental end point
Square brackets hold non-standard residues; d marks the D form. Peptide text beside a SMILES is read from it. Aib = CC(C)(N)C(=O)O

[
  {
    "compound": "CC(C)(NC(=O)[C@H](N)Cc1c[nH]c2ccccc12)C(=O)O [D-Trp-Aib] (H-[dW]-[Aib]-OH)",
    "recovery at 90 min, 1 mM (%)": 19.3
  }
]

###

- method description: in vivo
- setup conditions: CD-1, mouse, po, 50 mg/kg
Square brackets hold non-standard residues; d marks the D form. Peptide text beside a SMILES is read from it. Aib = CC(C)(N)C(=O)O
result type: MRT (h)

[
  {
    "compound": "CC(C)(NC(=O)[C@H](N)Cc1c[nH]c2ccccc12)C(=O)O [D-Trp-Aib] (H-[dW]-[Aib]-OH)",
    "result type": "MRT",
    "unit abbrev": "h",
    "data value": 1.29
  }
]

###

- method description: in vivo
- setup conditions: CD-1, mouse, po, 50 mg/kg
Square brackets hold non-standard residues; d marks the D form. Peptide text beside a SMILES is read from it. Aib = CC(C)(N)C(=O)O

[
  {
    "molecule": "CC(C)(NC(=O)[C@H](N)Cc1c[nH]c2ccccc12)C(=O)O [D-Trp-Aib] (H-[dW]-[Aib]-OH)",
    "bioavailability": "38.7%"
  }
]

###

- method description: in vivo
- setup conditions: CD-1, mouse, iv, 50 mg/kg
Square brackets hold non-standard residues; d marks the D form. Peptide text beside a SMILES is read from it. Aib = CC(C)(N)C(=O)O

[
  {
    "compound": "CC(C)(NC(=O)[C@H](N)Cc1c[nH]c2ccccc12)C(=O)O [D-Trp-Aib] (H-[dW]-[Aib]-OH)",
    "Vd (L/kg)": 2.16
  }
]

###

- method description: Acute toxicity in mice, single i.v. dose
- setup conditions: both sexes, mouse, in vivo, iv
Square brackets hold non-standard residues; d marks the D form. Peptide text beside a SMILES is read from it. Aib = CC(C)(N)C(=O)O

[
  {
    "compound": "CC(C)(NC(=O)[C@H](N)Cc1c[nH]c2ccccc12)C(=O)O [D-Trp-Aib] (H-[dW]-[Aib]-OH)",
    "MTD": "> 750 mg/kg"
  }
]

###

- method description: in vivo
- setup conditions: CD-1, mouse, inhaled or intranasal, 20 mg/kg
Square brackets hold non-standard residues; d marks the D form. Peptide text beside a SMILES is read from it. Aib = CC(C)(N)C(=O)O
result type: AUC(0-t) (ng·h/mL)

[
  {
    "compound": "CC(C)(NC(=O)[C@H](N)Cc1c[nH]c2ccccc12)C(=O)O [D-Trp-Aib] (H-[dW]-[Aib]-OH)",
    "result type": "AUC(0-t)",
    "data value": 10600
  }
]

###

- method description: Acute toxicity in mice, single i.v. dose
- setup conditions: both sexes, mouse, in vivo, iv, single dose, i.v.; read-out: maximal tolerated dose (MTD)
Square brackets hold non-standard residues; d marks the D form. Peptide text beside a SMILES is read from it. Aib = CC(C)(N)C(=O)O
result type: MTD

[
  {
    "molecule": "CC(C)(NC(=O)[C@H](N)Cc1c[nH]c2ccccc12)C(=O)O [D-Trp-Aib] (H-[dW]-[Aib]-OH)",
    "result type": "MTD",
    "data value": "< 1000 mg/kg"
  }
]

###

- method description: in vivo
- setup conditions: CD-1, mouse, iv, 50 mg/kg
Square brackets hold non-standard residues; d marks the D form. Peptide text beside a SMILES is read from it. Aib = CC(C)(N)C(=O)O
result type: AUC(0-t)

[
  {
    "molecule": "CC(C)(NC(=O)[C@H](N)Cc1c[nH]c2ccccc12)C(=O)O [D-Trp-Aib] (H-[dW]-[Aib]-OH)",
    "data value": "40600 ng·h/mL"
  }
]
